Please respond with reported TGI for every item in the list.
- Tested on: SNB-75 CNS
- TEST DETAILS: NCI tumour cell line growth inhibition, 48 h
Where a SMILES comes first, the peptide text is derived from it.

So, CCOC(=O)C1(C(=O)OCC)C[C@]23OCCC(=O)[C@H]2[C@H]2C(=O)OC(C)(C)O[C@]23C1 ? Its TGI was > 100 µM

So, O=C(NN=C1CCN(Cc2ccccc2)CC1)C(O)(c1ccccc1)c1ccccc1 ? Its TGI was > 100 µM

So, CCOC(=O)c1nc2cc(N3CCOCC3)c(F)cc2[nH]c1=O ? Its TGI was > 100 µM

So, O=S(=O)([O-])[O-].[OH3+].[OH3+].[OH3+].[Ru+2].c1ccccc1 ? Its TGI was > 100 µM

So, Cc1[nH]c2ncn3nc(C(Cl)(Cl)Cl)nc3c2c1Cc1ccccc1 ? Its TGI was > 100 µM

So, CCOC(=O)c1cc2cc(N(C(C)=O)C(C)=O)ccc2s1 ? Its TGI was 39.9 µM

So, CSC(=S)c1ccc(C(=S)SC)cc1 ? Its TGI was > 100 µM

So, Cn1cc(C(=O)c2nccc3c2cnc2ccccc23)ccc1=O ? Its TGI was > 100 µM

So, O=C(c1ccccc1)c1ccc(C(c2c(O)c3ccccc3oc2=O)c2c(O)c3ccccc3oc2=O)cc1 ? Its TGI was 62.4 µM

So, O=C1NC(=O)C(C(=O)C(=O)Nc2ccc(Br)cc2)C(=O)N1 ? Its TGI was > 100 µM

So, O=C(O)CC(C(=O)O)c1ccccc1[N+](=O)[O-] (configuration not stated) ? Its TGI was > 100 µM

So, CCN1C(=O)C/C(=C\C(C)=O)Nc2ccccc21 ? Its TGI was > 67.1 µM

So, CC(C)(C)[Si](C)(C)OCC1CCC(n2cnc3c(NC(=O)c4ccccc4)ncnc32)O1 (configuration not stated) ? Its TGI was 25.6 µM

So, Cn1c(C(N)=O)cc2c1-c1nc(Nc3ccccc3)ncc1CCC2 ? Its TGI was 8.35 µM

So, CC(=O)N(C)OC(=O)CC(=O)c1ccccc1 ? Its TGI was > 100 µM

So, CC(C)=CCC[C@]1(C)CC[C@]2(C)C3CCC(=C(C)C)[C@@H](CCCO)[C@]3(C)CC[C@@]2(C)C1 (some centres not stated) ? Its TGI was > 100 µM

So, COc1ccc(OC)c(C2CCc3nc4nc(N)nc(N)c4cc3C2)c1 (configuration not stated) ? Its TGI was 4.1 µM

So, Cc1ccc(S(=O)(=O)N/N=C(\CCN2CCCC2)CC(c2ccccc2)c2c(O)c3ccccc3oc2=O)cc1 (configuration not stated) ? Its TGI was > 100 µM

So, OC1(c2ccccc2)CC2CCC(C1)N2CCc1ccccc1 (configuration not stated) ? Its TGI was > 100 µM

So, Cc1ccc(S(=O)ON2CCC(C(=O)O)(c3ccccc3)CC2)cc1 (configuration not stated) ? Its TGI was > 100 µM

So, CCOC(=O)CN1CCNCCN(CC(=O)OCC)CCNCC1 ? Its TGI was > 100 µM

So, O=C1C2C(C(=O)N1O)N(Cc1ccccc1)C(=O)N2Cc1ccccc1 (configuration not stated) ? Its TGI was > 100 µM

So, CC(=O)/C(C=Nc1c(C)n(C)n(-c2ccccc2)c1=O)=C(/C)O ? Its TGI was > 100 µM

So, Cc1ccc(C)c(NC(=O)C(=O)C(c2cnc3ccc([N+](=O)[O-])cc3n2)[N+](=O)[O-])c1 (configuration not stated) ? Its TGI was > 100 µM

So, COc1cc(Nc2cnc3cc(C(F)(F)F)ccc3n2)cc(OC)c1OC ? Its TGI was > 100 µM

So, CCNc1nnc(CSc2nc(-c3ccccc3)c(-c3ccccc3)[nH]2)s1 ? Its TGI was 82.6 µM

So, Oc1c(CN2CCC(N3CCOCC3)CC2)cc(Cc2cc(CN3CCC(N4CCOCC4)CC3)c(O)c3ncccc23)c2cccnc12 ? Its TGI was 38.2 µM

So, NCc1ccc(-c2ccc(-c3ccc(-c4ccc(CN)s4)s3)s2)s1 ? Its TGI was > 100 µM

So, O=[N+]([O-])c1ccc(N2CCN(Cc3ccccc3)CC2)c2c1no[n+]2[O-] ? Its TGI was 2.26 µM

So, S=CN1CCCCC1 ? Its TGI was > 100 µM

So, CCC1=C(C)/C(=C/c2[nH]c(C)c(C(=O)CCCCC(=O)OC)c2C)N=C1c1ccc[nH]1 ? Its TGI was 27 µM

So, CC(=O)Nc1ccc(/C=C(\NC(=O)c2ccccc2)c2nc3ccc4c(c3[nH]2)C(=O)c2ccccc2C4=O)cc1 ? Its TGI was 61.5 µM

So, COc1ccc2c(c1)C(N)CC2=O (configuration not stated) ? Its TGI was > 100 µM

So, CCC1(C)C=Cc2c(cc(OC)c3c(=O)c4ccccc4n(C)c23)O1 (configuration not stated) ? Its TGI was > 10 µM

So, CC1NC(=O)CNC(=O)CNC(=O)C(Cc2ccc(O)cc2)NC(=O)C(C(C)C)NC(=O)C(C)NC1=O (configuration not stated) (cyclo(GGAAVY); configuration not given here) ? Its TGI was > 100 µM

So, CCNC(=O)C[C@@H]1N=C(c2ccc(Cl)cc2)c2cc(OC)ccc2-n2c(C)nnc21 ? Its TGI was 1.6 µM

So, C=C(O)c1ccccc1C#Cc1ccccc1C(=O)OC ? Its TGI was > 10 µM

So, Clc1ccc(-c2nn3c(CCCCCCCCc4nnc5sc(-c6ccc(Cl)cc6)nn45)nnc3s2)cc1 ? Its TGI was 75.3 µM

So, CCOc1c2ccsc2c(OCC)c2ccsc12 ? Its TGI was > 28.3 µM

So, CC/C(=N\NC(=O)c1cccnc1)c1ccc2c(c1)OCCO2 ? Its TGI was > 100 µM

So, C=CC1(C)CCC(C(C)C(=O)C(C=C(C)C)OC(C)=O)C12C(=O)Oc1ccccc1C2=O (configuration not stated) ? Its TGI was > 100 µM

So, O=C(Cc1nc2ccccc2s1)C(=O)Nc1ccc(Cl)cc1 ? Its TGI was > 100 µM

----------
Please respond with reported TGI for every item in the list.
- System: MOLT-4 leukemia
- TEST DETAILS: NCI tumour cell line growth inhibition, 48 h

So, COc1c(CC=C(C)C)c(O)c(C(CC(C)C)c2c(O)c(C(C)=O)c(O)c3c2OC(C(C)(C)O)C3)c(O)c1C(C)=O (centres undefined) ? Its TGI was > 12.5 µM

So, COc1ccc(OC)c(C2CCc3nc4nc(N)nc(N)c4cc3C2)c1 (centres undefined) ? Its TGI was 5.3 µM

So, C[C@]12CC[C@@H]3c4ccc(O)cc4CC[C@H]3[C@@H]1C/C(=C\c1ccc([N+](=O)[O-])cc1)C2=O ? Its TGI was > 100 µM

So, CC(=O)OCC1OC(On2ccccc2=S)C(OC(C)=O)C(OC(C)=O)C1OC(C)=O (centres undefined) ? Its TGI was > 100 µM

So, S=CN1CCCCC1 ? Its TGI was > 100 µM

So, CCN1C(=O)C/C(=C\C(C)=O)Nc2ccccc21 ? Its TGI was > 100 µM

So, O=c1[nH]c2ccc(C(F)(F)F)cc2nc1-c1ccccc1 ? Its TGI was > 100 µM

So, CCCC1NC(=O)C(CC(C)C)NC(=O)c2cccc(n2)C(=O)NC(CC(C)C)C(=O)NC(CCC)C(=O)NC(C(=O)OC)CCCCNC1=O (centres undefined) ? Its TGI was 44.8 µM

So, C/C(CN1C(=O)c2ccccc2C1=O)=N\NS(=O)(=O)c1cccc([N+](=O)[O-])c1 ? Its TGI was > 100 µM

----------
Please respond with reported GI50 for every item in the list.
- Test system: DU-145 prostate
- TEST DETAILS: NCI tumour cell line growth inhibition, 48 h

So, CN(C)CCNC(=O)c1ccc(Nc2nc3ccccc3c3occc23)cc1 ? Its GI50 was 6.94 µM

So, O=[N+]([O-])c1ccc(N2CCN(Cc3ccccc3)CC2)c2c1no[n+]2[O-] ? Its GI50 was 1.57 µM

So, COc1cccc(-c2nn(-c3ccccc3)cc2-c2ccnc(NCCNS(=O)(=O)c3ccc(Cl)cc3)c2)c1 ? Its GI50 was 7.55 µM

So, C=C1C(=O)O[C@H]2[C@H]1CC/C(COC(=O)C(=O)c1c[nH]c3ccccc13)=C\CC[C@@]1(C)O[C@@H]21 ? Its GI50 was 3.12 µM

So, O=C(Nc1ccc(-c2nc3cc4ccccc4cc3[nH]2)cc1)c1cccc(Br)c1 ? Its GI50 was 3.03 µM

So, N#CC1=C(N)Oc2cc3c(cc2C1c1cccs1)OCO3 (stereo not drawn) ? Its GI50 was 0.824 µM

So, O=[N+]([O-])c1cnc(Sc2ccncn2)c([N+](=O)[O-])c1 ? Its GI50 was 16.7 µM

So, O=C1c2ccccc2-c2c1c1ccccc1c(=O)n2CCCNCCCn1c2c(c3ccccc3c1=O)C(=O)c1ccccc1-2 ? Its GI50 was 1.49 µM

So, CN(C)/[N+]([O-])=N/Oc1cc(Nc2cccc(C(=O)O)c2)c([N+](=O)[O-])cc1[N+](=O)[O-] ? Its GI50 was > 100 µM

So, CCc1ccc(-c2nnc(COc3ccc(-c4nc5ccc(C)cc5[nH]4)cc3OC)o2)cc1 ? Its GI50 was 5.98 µM

So, CN1CCN(Cc2ccc(-c3cc4ncnc(Nc5ccc(OCc6cccc(F)c6)c(Cl)c5)c4s3)o2)CC1 ? Its GI50 was 4.03 µM

So, Oc1c(CN2CCC(N3CCOCC3)CC2)cc(Cc2cc(CN3CCC(N4CCOCC4)CC3)c(O)c3ncccc23)c2cccnc12 ? Its GI50 was 0.612 µM

So, CCNC(=O)C[C@@H]1N=C(c2ccc(Cl)cc2)c2cc(OC)ccc2-n2c(C)nnc21 ? Its GI50 was > 100 µM
